ASSAY SYSTEM: T1, human CD73 on SK-OV-3 cells (human ovarian adenocarcinoma cells) (human, UniProt P21589 27-549)
T1 construct: whole, on cells; also called human CD73 positive cells
T1 sequence (looked up): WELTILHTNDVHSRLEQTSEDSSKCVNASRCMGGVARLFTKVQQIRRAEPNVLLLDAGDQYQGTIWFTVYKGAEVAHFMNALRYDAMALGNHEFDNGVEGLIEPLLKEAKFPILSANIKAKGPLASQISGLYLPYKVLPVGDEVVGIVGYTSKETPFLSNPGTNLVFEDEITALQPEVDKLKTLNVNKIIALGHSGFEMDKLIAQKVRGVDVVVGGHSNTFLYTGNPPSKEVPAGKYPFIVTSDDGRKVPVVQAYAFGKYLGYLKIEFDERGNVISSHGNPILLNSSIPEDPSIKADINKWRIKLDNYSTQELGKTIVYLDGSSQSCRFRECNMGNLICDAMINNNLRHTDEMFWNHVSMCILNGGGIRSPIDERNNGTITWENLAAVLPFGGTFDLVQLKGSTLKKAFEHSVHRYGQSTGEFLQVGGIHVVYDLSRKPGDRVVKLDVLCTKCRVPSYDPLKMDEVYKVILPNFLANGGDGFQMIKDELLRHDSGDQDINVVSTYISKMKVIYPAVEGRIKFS
EXPERIMENT SUMMARY: flow cytometry on SK-OV-3 cells
OBSERVED PROPERTY: EC50 (µg/mL)
Unit µg/mL implied. Number only.

Example results:
* humanized CQ137 monoclonal antibody (137-9) (antibody, V domains shown) VH: QVQLVQSGAEVKKPGSSVKVSCKASGYSFTGYYIHWVRQAPGQGLEWMGRINPYNGATTYNQNFKDRVTITVDKSTSTAYMELSSLRSEDTAVYYCARFHYGAPDLWGQGTLVTVSS VL: DIQMTQSPSSLSASVGDRVTITCKASQDINTYLTWYQQKPGKAPKTLIYRANILVDGVPSRFSGSGSGTDFTLTISSLQPEDFATYYCLQYDAFPLTFGGGTKVEIKR | 0.0331
* humanized CQ137 monoclonal antibody (137-7) (antibody, V domains shown) VH: QVQLVQSGAEVKKPGSSVKVSCKASGYSFTGYYIHWVRQAPGQGLEWMGRINPYNGATTYNQNFKDRVTITVDKSTSTAYMELSSLRSEDTAVYYCARFHYGAPNYWGQGTLVTVSS VL: DIQMTQSPSSLSASVGDRVTITCKASQDINTYLTWYQQKPGKAPKTLIYRANILVDGVPSRFSGSGSGTDFTLTISSLQPEDFATYYCLQYDDFPLTFGGGTKVEIKR | 0.0301

Q: // EC50 lookup, key: humanized CQ137 monoclonal antibody (137-4) (antibody, V domains shown) VH: QVQLVQSGAEVKKPGSSVKVSCKASGYSFTGYYIHWVRQAPGQGLEWMGRINPYNGATTYNQNFKDRVTITVDKSTSTAYMELSSLRSEDTAVYYCARFHYGAVDYWGQGTLVTVSS VL: DIQMTQSPSSLSASVGDRVTITCKASQDINTYLTWYQQKPGKAPKTLIYRANILVDGVPSRFSGSGSGTDFTLTISSLQPEDFATYYCLQYEEFPLTFGGGTKVEIKR
Ans: 0.00307
